assay.notes: Drug excretion in arrhythmia patient (7 patients) assessed as unchanged compound level in urine at 400 mg, iv after 4 days 400 mg, po dose administered followed continuous oral therapy with 200 mg, tid measured 2 hrs after iv drug challenge by HPLC analysis
experimental.conditions: human
outcome.measure: concentration at 2 h (ng/mL)
The reply should be a number in ng/mL, with the unit left off.

Annotate the compound `CCCCc1oc2ccccc2c1C(=O)c1cc(I)c(OCCN(CC)CC)c(I)c1` with its measured concentration at 2 h.
100

====

assay.notes: Drug concentration in arrhythmia patient (7 patients) serum at 400 mg, iv after 4 days 400 mg, po dose administered followed continuous oral therapy with 200 mg, tid measured after 1 week by HPLC analysis
experimental.conditions: human
outcome.measure: concentration at 1 week

State, in one line, measured concentration at 1 week of `CCCCc1oc2ccccc2c1C(=O)c1cc(I)c(OCCN(CC)CC)c(I)c1`
1180 ng/mL
